- System: Acinetobacter baumannii AB2
- test_summary: MIC against Acinetobacter baumannii clinical isolate AB2
- Format: cell-based
measured_metric: MIC AB2 (µg/mL)
Give your result in µg/mL as a bare value.

Study these solved cases before continuing.
>  <compound>
NCCC(O)C(=O)NC1CC(N)C(OC2OC(CN)C(O)CC2N)C(F)C1OC1OC(CNCC(O)CN)C(O)C(N)C1O (stereo not shown)

>  <subject_of_test>
Acinetobacter baumannii AB2

>  <unit_abbreviation>
µg/mL

>  <readout_value>
1

$$$$
>  <compound>
NCCC(O)C(=O)NC1CC(N)C(OC2OC(CN)C(O)CC2N)C(F)C1OC1OC(CNCC2CNC2)C(O)C(N)C1O (stereo not shown)

>  <subject_of_test>
Acinetobacter baumannii AB2

>  <unit_abbreviation>
µg/mL

>  <readout_value>
1

$$$$

Continue with the compound presented below.
Data request: Return reported MIC AB2; argument: NCCCNCC1OC(OC2C(NC(=O)C(O)CCN)CC(N)C(OC3OC(CN)C(O)CC3N)C2F)C(O)C(N)C1O (stereo not shown)
Data returned: 1
